- Tested on: UACC-62
- TEST NAME: NCI tumour cell line growth inhibition, 48 h
Active and inactive are the calls of the source. Cut-off read from the data, not from the text of the source: active = GI50 up to about 1.1 µM and inactive = higher.
Outcomes you can answer with include only these: active, inactive

compound="Fc1ccc2nc3n(c2c1)C(c1c(Cl)cccc1Cl)SC3 (stereo not drawn)" group_label=inactive

Tell me the assay call for CSc1ccc(/C=C2\N=C(c3ccccc3)N(c3nc4cc(C)c(C)cc4s3)C2=O)cc1 please.
inactive

Name the outcome recorded for COc1ccc(-c2nc3c(nc2-c2ccc(OC)cc2)C(N)=NS(=O)(=O)N3)cc1 in the assay.
inactive

Lab log entry: C=CCOC(OCC=C)/C(Br)=C/C — outcome as called in the assay?
inactive

GET /call?item= CCOC(=O)C1=C(c2ccccc2)NC(c2ccccc2)=C(C(=O)OCC)c2c1c(=O)cc[nH]c2=O returns the recorded outcome of this test.
inactive

I would be grateful if you could indicate the recorded call for O=c1c(F)cn2c(=O)n1CCCCCCCn1c(=O)c(F)cn(c1=O)CCCCCCC2 .
inactive

====

- Tested on: RPMI-8226
- TEST NAME: NCI tumour cell line growth inhibition, 48 h
Activity calls are given as the source filed them. Cut-off read from the data, not from the text of the source: active = GI50 up to about 1.1 µM and inactive = higher.
Please state which outcome applies, choosing from yes for active, no for inactive

Known results for compounds:
compound=C/C(=N\NC(=S)N1CCOCC1)c1nc2cccnc2[nH]1 target_system=RPMI-8226 group_label=no
compound=COc1ccc2nc3cc([N+](=O)[O-])ccc3c(Nc3ccc(S(=O)(=O)NC(C)=O)cc3)c2c1 target_system=RPMI-8226 group_label=no

Assay outcome for c1ccc(COc2ccc(C[P+](c3ccccc3)(c3ccccc3)c3ccccc3)cc2)cc1 : what was it?
yes

Write down the call the test reported for this compound. Item: COc1c2c(cc3oc(=O)ccc13)OC(C)(C)C=C2
no

Any idea what this test logged for CC(C)(O)[C@@H]1CCC(C)([C@H]2[C@@H](O)CC3(C)C4CC(OC5OC(CO)C(O)C(O)C5O)C5C(C)(C)[C@@H](OC6OCC(O)C(O)C6O)CC[C@@]56C[C@@]46CC[C@]23C)O1 (stereo partly drawn) ?
no

So what was the verdict on CCCCCCOc1ccc(C(=O)NOC)cc1 in this test?
no

Fill in: this test's call for COC(=O)C(C)(NC(=O)C(CC(=O)OC(C)(C)C)NC(=O)OC(C)(C)C)c1ccccc1 (stereo not drawn) is ___
no

Record request — test call for Cc1nn(C(=O)c2ccc(Cl)cc2)c2c1C(c1ccccc1[N+](=O)[O-])SC(=N)N2 (stereo not drawn)
no

What was the test verdict on COc1ccc2c(c1)CC[C@@H]1C2CC[C@]2(C)C(=O)N(CCN3CCCCC3)C(=O)CC12 (stereo partly drawn) ?
no

====

- Tested on: UO-31
- TEST NAME: NCI tumour cell line growth inhibition, 48 h
Active and inactive are the calls of the source. Cut-off read from the data, not from the text of the source: active = GI50 up to about 1.1 µM and inactive = higher.
Select the correct class. Options are True for active, False for inactive and nothing else.

compound="COC(=O)C(C)(NC(=O)C(CC(=O)OC(C)(C)C)NC(=O)OC(C)(C)C)c1ccccc1 (centres undefined)" group_label=False

Hi team, can someone confirm the assay call for COc1cccc2c(NNc3ccccc3)c3ccc([N+](=O)[O-])cc3nc12 ?
False

For this compound, state the assay outcome: COc1ccccc1NC(=S)N/N=C(/c1ccccc1)c1ccccn1
True

Any idea what this test logged for CCOC(=O)CC1=N/C(=N/C(=N)N[N+](=O)[O-])SC1 ?
False

Returns: the outcome recorded for C[C@H](N)C(=O)Nc1ccc(-c2nc3ccccc3s2)cc1Cl in this assay.
False

In this assay, the call recorded for CC(C)(C)OC(=O)CCC1NC(=O)[C@@H]2Cc3c([nH]c4ccccc34)C(C3CCCCC3)N2C1=O (some centres undefined) was what?
False

Name the outcome recorded for COc1ccccc1-c1cc(=O)c2ccccc2n1C1CC1 in the assay.
False

Record request — test call for C#CCC(N)(CO)C(=O)O (centres undefined)
False
